# Test system: ACHN renal
# test.summary: NCI-60 one-dose screen, 48 h (100 = growth as untreated, 0 = no growth, -100 = all killed)
# study.conditions: 10 µM unless noted
The panel holds about 83,000 compounds, 20% with a hit somewhere; the sample as a whole holds those more often.
Note to self: use criterion met only for growth readings below 70%; a reading exactly at 70% still gets criterion not met.

Would you please look over these solved cases?
- compound: "CC(C)C[C@H](NC(=O)[C@@H](Cc1ccccc1)n1ccc(Nc2ccccc2)cc1=O)B(O)O"
  group.label: "criterion met"
- compound: "CCCCCCOc1ccc(C2(Cl)c3ccccc3N(C)c3ccccc32)cc1"
  group.label: "criterion met"
- compound: "O=Nc1c(-c2c(O)[nH]c3ccc([N+](=O)[O-])cc23)[nH]c2ccc(O)cc12"
  group.label: "criterion met"
- compound: "COc1ccc(-n2c(C)cc(-c3ccccc3)c2C)cc1"
  group.label: "criterion met"
- compound: "CCN(CC)CCCC(C)N=c1cc(Nc2cc(=NC(C)CCCN(CC)CC)c3cc(OC)ccc3o2)oc2ccc(OC)cc12 (stereo not drawn)"
  group.label: "criterion met"
- compound: "O=c1c2cccc3c(Nc4ccc(F)cc4)ccc(c32)c2nc3ccccc3n12"
  group.label: "criterion not met"
- compound: "COc1cccc(/C=C/c2c(C(=O)O)cccc2[N+](=O)[O-])c1OC"
  group.label: "criterion not met"
- compound: "Cc1cc(Nc2nc(C(=O)Nc3ccccc3)nc3ccccc23)n[nH]1"
  group.label: "criterion met"
- compound: "COc1ccc(Cn2cc(COc3cc(/C=C/C(=O)c4cc(OC)c(OC)c(OC)c4)ccc3OC)nn2)cc1"
  group.label: "criterion met"
- compound: "CC(=O)Nc1nc(C(=O)N2N=C(C)/C(=C/c3ccc(Cl)cc3)C2=O)cs1"
  group.label: "criterion not met"

Problem: is_below(growth, 70%) for `COC(=O)c1cc(-c2cccs2)c(C#N)c(N)c1C#N` ?
Result: criterion not met

Problem: is_below(growth, 70%) for `CC(=O)OC[Si](C)(C)c1ccccc1` ?
Result: criterion not met

Problem: is_below(growth, 70%) for `CN(C)c1nc(N)c(N=O)c(N)n1` ?
Result: criterion not met

Problem: is_below(growth, 70%) for `CC(C)(C)c1ccc(S(=O)(=O)Oc2ccc3c4c(c(=O)oc3c2)CCCCC4)cc1` ?
Result: criterion met

Problem: is_below(growth, 70%) for `O=S(=O)(NCCNc1cc(-c2cn(-c3ccccc3)nc2-c2ccccc2)ccn1)c1cccc2ccccc12` ?
Result: criterion met

Problem: is_below(growth, 70%) for `COc1ccc(/C=C/C(=O)OCC(=O)NNC(=O)c2ccccc2)cc1OC` ?
Result: criterion not met

Problem: is_below(growth, 70%) for `CCCCCCCN(CCCCCCC)C(=N)c1ccc(OC)c2ccccc12` ?
Result: criterion met

----------
Parameter growth: see the listing below.
# Tested on: TK-10 renal
# test.summary: NCI-60 one-dose screen, 48 h (100 = growth as untreated, 0 = no growth, -100 = all killed)
# study.conditions: 10 µM unless noted
Compounds without any hit were thinned out: in the full panel of roughly 83,000, 20% have a hit.
Supply the numeric figure in %, leaving out any unit text.

- compound: "CCOC(=O)c1cc(/C(=N\\O)c2cc(OC)c(OC)c(OC)c2)n2c(C)cccc12"
  growth [%]: 21.2
- compound: "CCNCc1ccncc1"
  growth [%]: 99.5
- compound: "c1ccc(CCn2nnc3c(Nc4ccc(N5CCOCC5)cc4)ncnc32)cc1"
  growth [%]: 121
- compound: "CNC(=O)Cc1nc(-c2cccc(NS(=O)(=O)c3c(F)cccc3F)c2F)c(-c2ccnc(Nc3ccccc3)n2)s1"
  growth [%]: 42.7
- compound: "COc1cc(-n2nc(C(=O)Nc3ccc(C(=O)O)cc3)nc2-c2ccccc2)cc(OC)c1OC"
  growth [%]: 79.1
- compound: "Cc1ccc2c(c1)ncn2-c1ncnc2c1CC(C)c1ccccc1N2C (stereo not given)"
  growth [%]: 8.21
- compound: "CCN(CC)c1cc(/C=C/c2ccc(OC)c(OC)c2)nc2cc(F)c(F)cc12"
  growth [%]: -28.6
- compound: "COC1=CC(c2ccc[nH]2)=N/C1=C\\c1[nH]c(C)c(C(=O)CCCCC(=O)Nc2ccccc2)c1C"
  growth [%]: -11.9
- compound: "O=C1Nc2cc(Cl)ccc2/C1=C/c1ccc(N2CCOCC2)s1"
  growth [%]: -3.94

Shift focus to the following entry.
Problem: Quick one: growth of CC(=O)Nc1ccc(S(=O)(=O)N2C(=O)CCC2C(=O)Nc2ccccc2)cc1 (stereo not given) ?
Result: 27.5

----------
Parameter growth: see the listing below.
# Test system: HS 578T breast
# test.summary: NCI-60 one-dose screen, 48 h (100 = growth as untreated, 0 = no growth, -100 = all killed)
# study.conditions: 10 µM unless noted
Compounds without any hit were thinned out: in the full panel of roughly 83,000, 20% have a hit.
Supply the numeric figure in %, leaving out any unit text.

// below: answered molecules
- molecule: "O=S(=O)(NCCCNc1nccc(-c2c(-c3ccc(O)cc3)nc3sccn23)n1)c1ccc(F)cc1"
  tgt: "HS 578T breast"
  units: "%"
  measurement: 11.5
- molecule: "CC(=O)C1CCC(C)=CC1=O (centres undefined)"
  tgt: "HS 578T breast"
  units: "%"
  measurement: 122
- molecule: "CCNC(=O)C1CCCN1C(=O)C(CCCN=C(N)N)NC(=O)C(CC(C)C)NC(=O)C(CC(C)C)NC(=O)C(Cc1ccc(O)cc1)NC(=O)C(CO)NC(=O)C(Cc1c[nH]c2ccccc12)NC(=O)C(Cc1cnc[nH]1)NC(=O)C1CCC(=O)N1 (centres undefined)"
  tgt: "HS 578T breast"
  units: "%"
  measurement: 81.2

Problem: Quick one: growth of `COc1cc(-c2n[nH]nc2-c2ccc3c(c2)OCCO3)cc(OC)c1OC` ?
Result: 12.7

----------
# Test system: OVCAR-5 ovarian
# test.summary: NCI-60 one-dose screen, 48 h (100 = growth as untreated, 0 = no growth, -100 = all killed)
# study.conditions: 10 µM unless noted
This is part of a sample that, as a whole, favours compounds with a hit. Of some 83,000 tested, about 20% had one in any assay.
Parameter growth: see the listing below.
Supply the numeric figure in %, leaving out any unit text.

- line.notation: "Nc1nc(-c2ccccc2)cs1"
  growth, %: 98.7
- line.notation: "Cc1ccc(Oc2nc3ccccc3cc2-c2nnc(Cn3c(COc4ccccc4)nc4ccccc43)o2)cc1"
  growth, %: 87.7
- line.notation: "COC(=O)CCCCN=Cc1c(O)c(O)c(C(C)C)c2cc(C)c(-c3c(C)cc4c(C(C)C)c(O)c(O)c(C=NCCCCC(=O)OC)c4c3O)c(O)c12"
  growth, %: 17.8
- line.notation: "COc1ccc(OC)c(C(=O)c2oc3ccc(Br)cc3c2N)c1"
  growth, %: 45.5

Problem: Identify the measured growth of `COc1ccc(/C=C\c2cc(OC)c(OC)c(OC)c2)c(NS(=O)(=O)c2ccc(C(C)(C)C)cc2)c1O` for OVCAR-5 ovarian.
Result: 32.4

Problem: Identify the measured growth of `COc1ccc(-c2nc3sccn3c2-c2ccnc(NCCCNS(=O)(=O)c3ccc(F)cc3)n2)cc1` for OVCAR-5 ovarian.
Result: 77

Problem: Identify the measured growth of `O=C1CCCCN1CCCCC#Cc1ccccc1C#Cc1ccccn1` for OVCAR-5 ovarian.
Result: 95.2

Problem: Identify the measured growth of `Oc1ccc(Cl)cc1-c1cc(-c2ccc(Cl)cc2)n[nH]1` for OVCAR-5 ovarian.
Result: 73.3

Problem: Identify the measured growth of `Cc1nc(Nc2cccnc2)sc1C(=O)/C=C/c1ccc(Cl)cc1` for OVCAR-5 ovarian.
Result: 37.3

Problem: Identify the measured growth of `COc1cc(NCCN=C(N)NC(N)=NC(C)C)c2ncccc2c1` for OVCAR-5 ovarian.
Result: 80.2

----------
# Test system: NCI-H226 lung
# test.summary: NCI-60 one-dose screen, 48 h (100 = growth as untreated, 0 = no growth, -100 = all killed)
# study.conditions: 10 µM unless noted
About 83,000 compounds went through this panel and 20% of them were active in at least one assay; those are over-represented in the sample as a whole.
Parameter growth: see the listing below.
Supply the numeric figure in %, leaving out any unit text.

// below: answered compounds
- line.notation: "COc1ncc(-c2ccc3ncnc(Nc4cccc(Cl)c4)c3c2)cc1N(S(C)(=O)=O)S(C)(=O)=O"
  growth / %: 64.5
- line.notation: "C=CCc1cc(Cl)cc2c(OC(C)=O)c(C(C)=O)c(-c3ccccc3)nc12"
  growth / %: 103
- line.notation: "CCOC(=O)c1cc(/C(=N\\O)c2cc(OC)c(OC)c(OC)c2)n2c(C)cccc12"
  growth / %: 78.8
- line.notation: "O=C(Nc1ccc(F)cc1)c1cc([N+](=O)[O-])ccc1O"
  growth / %: 88.3

Shift focus to the following entry.
Problem: Quick one: growth of `O=C1OC(c2ccccc2)=N/C1=C\c1ccc([N+](=O)[O-])cc1` ?
Result: 93.6
